- EXPERIMENT_SUMMARY: Ratio for Kcat to Km was determined
- Parameters: unit not given here
EXPERIMENTAL_READOUT: Ratio

Use the examples below as a reference point.
SMILES_ENTRY: C[C@@H](SC(=O)CNC(=O)Cc1ccccc1)C(=O)O
VAL: 6670

SMILES_ENTRY: C[C@@H](OC(=O)CNC(=O)Cc1ccccc1)C(=O)O
VAL: 3390

SMILES_ENTRY: CC(=O)NCCCC[C@H](NC(C)=O)C(=O)N[C@@H](C)C(=O)O[C@H](C)C(=O)O
VAL: 2340

P = CC(=O)NCCCC[C@H](NC(C)=O)C(=O)NCC(=O)S[C@H](C)C(=O)O
Q = C[C@H](NC(=O)Cc1ccccc1)C(=O)O[C@H](C)C(=O)O
R = CC(=O)NCCCC[C@H](NC(C)=O)C(=O)NCC(=O)O[C@H](C)C(=O)O
Asked: Sort these compounds on Ratio so the largest reading comes first. Use the labels to give the ranking in the order requested.
Given back: Q, P, R
(Q: 1240, P: 763, R: 493)

###

- System: Streptomyces
- EXPERIMENT_SUMMARY: Kcat against Streptomyces R61 DD-peptidase
EXPERIMENTAL_READOUT: k cat (s⁻¹)

Below, each entry is followed by its recorded k cat result.
SMILES_ENTRY: C[C@H](NC(=O)Cc1ccccc1)C(=O)O[C@H](C)C(=O)O
k cat (s⁻¹): 24.6
--
SMILES_ENTRY: CC(=O)NCCCC[C@H](NC(C)=O)C(=O)N[C@@H](C)C(=O)O[C@H](C)C(=O)O
k cat (s⁻¹): 65.9
--
SMILES_ENTRY: C[C@H](NC(=O)Cc1ccccc1)C(=O)N[C@H](C)C(=O)O
k cat (s⁻¹): 2
--
SMILES_ENTRY: CC(=O)NCCCC[C@H](NC(C)=O)C(=O)NCC(=O)O[C@H](C)C(=O)O
k cat (s⁻¹): 10.4
--
SMILES_ENTRY: CC(=O)NCCCC[C@H](NC(C)=O)C(=O)NCC(=O)S[C@H](C)C(=O)O
k cat (s⁻¹): 11.9
--
SMILES_ENTRY: C[C@@H](SC(=O)CNC(=O)Cc1ccccc1)C(=O)O
k cat (s⁻¹): 6.1
--
SMILES_ENTRY: C[C@@H](OC(=O)CNC(=O)Cc1ccccc1)C(=O)O
k cat (s⁻¹): 4.3

1 = CC(=O)NCCCC[C@H](NC(C)=O)C(=O)N[C@@H](C)C(=O)N[C@H](C)C(=O)O
2 = CC(=O)NCCCC[C@H](NC(C)=O)C(=O)NCC(=O)N[C@H](C)C(=O)O
Asked: Field: lower k cat | Options: 1 / 2 Kindly state the label of the option you pick.
Given back: 2
(2: 0.019 s⁻¹, 1: 55 s⁻¹)

###

- System: Streptomyces
- EXPERIMENT_SUMMARY: Km against Streptomyces R61 DD-peptidase
EXPERIMENTAL_READOUT: Km (mM)

# example entries with known answers
SMILES_ENTRY: C[C@@H](OC(=O)CNC(=O)Cc1ccccc1)C(=O)O
Km / mM: 11.8
//
SMILES_ENTRY: C[C@H](NC(=O)Cc1ccccc1)C(=O)O[C@H](C)C(=O)O
Km / mM: 6.8
//
SMILES_ENTRY: CC(=O)NCCCC[C@H](NC(C)=O)C(=O)NCC(=O)S[C@H](C)C(=O)O
Km / mM: 2
//
SMILES_ENTRY: CC(=O)NCCCC[C@H](NC(C)=O)C(=O)NCC(=O)O[C@H](C)C(=O)O
Km / mM: 9.8
//
SMILES_ENTRY: CC(=O)NCCCC[C@H](NC(C)=O)C(=O)NCC(=O)N[C@H](C)C(=O)O
Km / mM: 15
//
SMILES_ENTRY: C[C@H](NC(=O)Cc1ccccc1)C(=O)N[C@H](C)C(=O)O
Km / mM: 7

P = C[C@@H](SC(=O)CNC(=O)Cc1ccccc1)C(=O)O
Q = CC(=O)NCCCC[C@H](NC(C)=O)C(=O)N[C@@H](C)C(=O)O[C@H](C)C(=O)O
Asked: Endpoint returns the identifier whose Km is numerically larger, either P or Q . Bench note: the answer is the label of the chosen record.
Given back: Q
(Q: 50.6 mM, P: 0.63 mM)
